# Method notes: Cmax in C57BL/6Rj mouse at 30 mg/kg administered as single dose via oral gavage up to 24 hrs by LC-MS/MS analysis
# Type: ADME, organism-based
# Design: dose 30 mg/kg, route oral
# Condition: in vivo
Measured endpoint: Cmax (ng/mL)
Numbers only, in ng/mL.

The value of Cmax measured for the molecule CCc1nc2c(C)cc(N3CCN(CC(=O)N4CC(O)C4)CC3)cn2c1N(C)c1nc(-c2ccc(F)cc2)c(C#N)s1 turned out to be 21400

###

# Method notes: Apparent terminal half life in C57BL/6Rj mouse at 30 mg/kg administered as single dose via oral gavage up to 24 hrs by LC-MS/MS analysis
# Format: ADME, organism-based
# Condition: in vivo, read-out: betat1/2(app) (converted)
Measured endpoint: half-life (h)
Numbers only, in h.

Please fill in: half-life reported for CCc1nc2c(C)cc(N3CCN(CC(=O)N4CC(O)C4)CC3)cn2c1N(C)c1nc(-c2ccc(F)cc2)c(C#N)s1 = 3.79

###

# Experimental system: Voltage-gated inwardly rectifying potassium channel KCNH2 (Homo sapiens, UniProt Q12809)
# Sequence (Q12809 whole entry): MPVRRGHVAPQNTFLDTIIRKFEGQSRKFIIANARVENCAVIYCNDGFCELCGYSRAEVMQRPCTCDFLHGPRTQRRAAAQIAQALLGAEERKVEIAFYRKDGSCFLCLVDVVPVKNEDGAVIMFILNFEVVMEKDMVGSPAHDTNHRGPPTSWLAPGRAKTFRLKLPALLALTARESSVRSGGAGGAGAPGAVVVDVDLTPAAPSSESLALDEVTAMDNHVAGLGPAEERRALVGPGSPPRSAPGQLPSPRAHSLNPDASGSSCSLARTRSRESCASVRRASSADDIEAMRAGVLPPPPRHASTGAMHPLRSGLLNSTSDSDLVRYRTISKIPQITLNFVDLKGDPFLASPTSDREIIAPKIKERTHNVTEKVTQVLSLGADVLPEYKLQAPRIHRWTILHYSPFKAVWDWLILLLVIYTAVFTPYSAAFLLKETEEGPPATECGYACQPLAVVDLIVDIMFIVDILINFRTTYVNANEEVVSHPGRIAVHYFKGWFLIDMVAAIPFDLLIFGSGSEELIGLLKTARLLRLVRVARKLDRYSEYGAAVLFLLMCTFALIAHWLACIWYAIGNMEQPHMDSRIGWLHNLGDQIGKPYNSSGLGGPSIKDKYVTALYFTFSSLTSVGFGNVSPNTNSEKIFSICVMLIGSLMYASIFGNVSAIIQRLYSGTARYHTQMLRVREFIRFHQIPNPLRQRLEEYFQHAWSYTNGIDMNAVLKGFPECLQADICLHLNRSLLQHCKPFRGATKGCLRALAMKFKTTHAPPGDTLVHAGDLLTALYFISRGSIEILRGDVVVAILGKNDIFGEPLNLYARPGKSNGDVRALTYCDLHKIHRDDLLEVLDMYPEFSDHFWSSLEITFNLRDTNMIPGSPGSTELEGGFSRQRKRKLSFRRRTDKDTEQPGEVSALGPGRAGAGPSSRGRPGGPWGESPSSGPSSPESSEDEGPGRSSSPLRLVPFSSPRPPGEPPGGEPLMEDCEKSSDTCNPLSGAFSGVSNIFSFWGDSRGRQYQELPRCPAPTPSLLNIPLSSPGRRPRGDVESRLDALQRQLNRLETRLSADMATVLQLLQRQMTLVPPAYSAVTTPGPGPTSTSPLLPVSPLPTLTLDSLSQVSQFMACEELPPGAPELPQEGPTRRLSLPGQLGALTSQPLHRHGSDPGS
# Method notes: Inhibition of human ERG by automated patch clamp assay
Measured endpoint: pIC50
Give bare numbers, as −log10 of the molar value.

Lab note: measured pIC50 of CCc1nc2ccc(C3CCN(CC(=O)N4CC(O)C4)CC3)cn2c1N(C)c1nc(-c2ccc(F)cc2)c(C#N)s1 was 5.54

###

# Method notes: Plasma clearance in dog at 1 mg/kg, iv
# Format: ADME, organism-based, Canis lupus familiaris
Measured endpoint: clearance (mL/min/kg)
Numbers only, in mL/min/kg.

// field: clearance; key: CCc1nc2c(C)cc(N3CCN(CC(=O)N4CC(O)C4)CC3)cn2c1N(C)c1nc(-c2ccc(F)cc2)c(C#N)s1 [ZIRITAXESTAT] ; value = 2

###

# Method notes: Apparent elimination half life in C57BL/6Rj mouse at 3 mg/kg administered as single dose via oral gavage up to 24 hrs by LC-MS/MS analysis
# Type: ADME, organism-based
# Condition: in vivo, read-out: betat1/2(app) (converted)
Measured endpoint: half-life (h)
One number for each entry, in h.

The reported half-life of the molecule CCc1nc2c(C)cc(N3CCN(CC(=O)N4CC(O)C4)CC3)cn2c1N(C)c1nc(-c2ccc(F)cc2)c(C#N)s1 [ZIRITAXESTAT] was 2.21

###

# Method notes: Oral bioavailability in dog at 1 mg/kg
# Assay type: ADME, organism-based, Canis lupus familiaris
# Condition: in vivo
Measured endpoint: bioavailability

For record CCc1nc2c(C)cc(N3CCN(CC(=O)N4CC(O)C4)CC3)cn2c1N(C)c1nc(-c2ccc(F)cc2)c(C#N)s1 the listed bioavailability is 63%

###

# Method notes: Oral bioavailability in rat at 5 mg/kg
# Assay type: ADME, organism-based
# Condition: in vivo
Measured endpoint: bioavailability (%)
Answers are plain numbers, in %.

Dear colleague, could you please provide bioavailability for the compounds listed below?
1. CCc1nc2ccc(C3CCN(CC(=O)N4CC(O)C4)CC3)cn2c1N(C)c1nc(-c2ccc(F)cc2)c(C#N)s1
2. CCc1nc2c(C)cc(N3CCN(CC(=O)N4CC(O)C4)CC3)cn2c1N(C)c1nc(-c2ccc(F)cc2)c(C#N)s1 [ZIRITAXESTAT]

*A*
1: 15; 2: 37

###

# Experimental system: Autotaxin (Rattus norvegicus, UniProt Q64610)
# Method notes: Inhibition of ATX in rat plasma assessed as reduction in LPA 18:2 production after 2 hrs by LC-MS/MS analysis
What pIC50 was measured for each of the following?
Numbers only, as −log10 of the molar value.

- Molecule: "CCc1nc2c(C)cc(N3CCN(CC(=O)N4CC(O)C4)CC3)cn2c1N(C)c1nc(-c2ccc(F)cc2)c(C#N)s1 [ZIRITAXESTAT]"
  Experimental system: "Autotaxin (Rattus norvegicus, UniProt Q64610)"
  Numeric value: 6.27

Now examine the next entry.
Sample CCc1nc2ccc(C3CCN(CC(=O)N4CC(O)C4)CC3)cn2c1N(C)c1nc(-c2ccc(F)cc2)c(C#N)s1 ; pIC50 observed: 7.66

###

# Experimental system: Cytochrome P450 3A4 (Homo sapiens)
# Sequence (P08684 whole entry): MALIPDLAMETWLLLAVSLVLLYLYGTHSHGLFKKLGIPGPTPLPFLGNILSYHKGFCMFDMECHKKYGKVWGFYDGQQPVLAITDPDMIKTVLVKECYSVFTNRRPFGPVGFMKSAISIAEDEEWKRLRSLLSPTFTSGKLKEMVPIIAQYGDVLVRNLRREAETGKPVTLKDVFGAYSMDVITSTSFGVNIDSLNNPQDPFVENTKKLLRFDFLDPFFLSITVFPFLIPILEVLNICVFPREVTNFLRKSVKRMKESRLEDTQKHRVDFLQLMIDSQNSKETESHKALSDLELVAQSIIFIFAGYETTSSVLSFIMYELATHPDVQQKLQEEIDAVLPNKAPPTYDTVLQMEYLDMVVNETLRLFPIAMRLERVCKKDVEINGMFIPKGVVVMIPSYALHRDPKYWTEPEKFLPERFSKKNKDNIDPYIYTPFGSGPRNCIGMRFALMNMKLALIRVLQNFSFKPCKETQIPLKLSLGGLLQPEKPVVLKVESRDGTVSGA
# Method notes: Time-dependent inhibition of human liver microsomes CYP3A4
# Type: ADME
Measured endpoint: TDI

- Compound: "CCc1nc2ccc(N3CCN(CC(=O)N4CC(O)C4)CC3)cn2c1N(C)c1nc(-c2ccc(F)cc2)c(C#N)s1"
  Result: "Active"
- Compound: "CCc1nc2ccc(C3CCN(CC(=O)N4CC(O)C4)CC3)cn2c1N(C)c1nc(-c2ccc(F)cc2)cs1"
  Result: "Active"
- Compound: "CCc1nc2ccc(C3CCN(CC(=O)N4CC(O)C4)CC3)nn2c1N(C)c1ccc(C#N)c(-c2ccc(F)cc2)n1"
  Result: "Active"
- Compound: "CCc1nc2cc(C)c(C3CCN(CC(=O)N4CC(O)C4)CC3)cn2c1N(C)c1nc(-c2ccc(F)cc2)cs1"
  Result: "Not Active"
- Compound: "CCc1nc2ccc(N3CCN(CC(=O)N4CC(O)C4)CC3)cn2c1N(C)c1nc(-c2ccc(F)cc2)cs1"
  Result: "Active"
- Compound: "CCc1nc2ccc(C3CCN(CC(=O)N4CC(O)C4)CC3)cn2c1N(C)c1nc(-c2ccc(F)cc2)c(C#N)s1"
  Result: "Active"

// for each compound in input: emit TDI
1. CCc1nc2ccc(C3CCN(CC(=O)N4CC(O)C4)CC3)nn2c1N(C)c1nc(-c2ccc(F)cc2C#N)ns1
2. CCc1nc2c(C)cc(C3CCN(CC(=O)N4CC(O)C4)CC3)cn2c1N(C)c1nc(-c2ccc(F)cc2)c(C#N)s1
3. CCc1nc2c(C)cc(N3CCN(CC(=O)N4CC(O)C4)CC3)cn2c1N(C)c1nc(-c2ccc(F)cc2)c(C#N)s1 [ZIRITAXESTAT]
4. CCc1nc2ccc(N3CCN(CC(=O)N4CC(O)C4)CC3)nn2c1N(C)c1nc(-c2ccc(F)cc2)c(C#N)s1
5. CCc1nc2cnc(N3CCN(CC(=O)N4CC(O)C4)CC3)cn2c1N(C)c1nc(-c2ccc(F)cc2)c(C#N)s1

*A*
1. Active
2. Not Active
3. Not Active
4. Active
5. Not Active

###

So I've got pIC50 readings for Autotaxin (Homo sapiens), take a look.
Numbers only, as −log10 of the molar value.

Consider the following illustrative entries.
- Chemical string: "CCc1nc2cc(C)c(C3CCN(CC(=O)N4CC(O)C4)CC3)cn2c1N(C)c1nc(-c2ccc(F)cc2)cs1"
  Numeric value: 6.09
- Chemical string: "CCc1nc2ccc(C3CCN(CC(=O)N4CC(O)C4)CC3)nn2c1N(C)c1nc(-c2ccc(F)cc2C#N)ns1"
  Numeric value: 6.53

// switching to the query compound
According to the records, this compound CCc1nc2ccc(C3CCN(CC(=O)N4CC(O)C4)CC3)cn2c1N(C)c1nc(-c2ccc(F)cc2)cs1 displays pIC50 of 6.61

###

# Method notes: Tmax in C57BL/6Rj mouse at 30 mg/kg administered as single dose via oral gavage up to 24 hrs by LC-MS/MS analysis
# Format: ADME, organism-based
# Condition: in vivo
Measured endpoint: Tmax (h)
Give bare numbers, in h.

The reported value for CCc1nc2c(C)cc(N3CCN(CC(=O)N4CC(O)C4)CC3)cn2c1N(C)c1nc(-c2ccc(F)cc2)c(C#N)s1 in terms of Tmax is 1

###

# Method notes: Plasma clearance in rat at 1 mg/kg, iv
# Assay type: ADME, organism-based
Measured endpoint: clearance

- Compound: "CCc1nc2c(C)cc(N3CCN(CC(=O)N4CC(O)C4)CC3)cn2c1N(C)c1nc(-c2ccc(F)cc2)c(C#N)s1 [ZIRITAXESTAT]"
  clearance: "11.5 mL/min/kg"

Here's the next entry for you.
clearance reading for CCc1nc2ccc(C3CCN(CC(=O)N4CC(O)C4)CC3)cn2c1N(C)c1nc(-c2ccc(F)cc2)c(C#N)s1 : 51.7 mL/min/kg

###

# Method notes: Apparent terminal half life in C57BL/6Rj mouse at 10 mg/kg administered as single dose via oral gavage up to 24 hrs by LC-MS/MS analysis
# Assay type: ADME, organism-based
# Condition: in vivo, read-out: betat1/2(app) (converted)
Measured endpoint: half-life (h)
Give bare numbers, in h.

The recorded half-life for CCc1nc2c(C)cc(N3CCN(CC(=O)N4CC(O)C4)CC3)cn2c1N(C)c1nc(-c2ccc(F)cc2)c(C#N)s1 is 2.22

###

Provide the recorded bioavailability for the entries that follow.
# Method notes: Oral bioavailability in mouse at 5 mg/kg
# Format: ADME, organism-based
# Condition: in vivo
Give bare numbers, in %.

- Chemical string: "CCc1nc2ccc(C3CCN(CC(=O)N4CC(O)C4)CC3)cn2c1N(C)c1nc(-c2ccc(F)cc2)c(C#N)s1"
  Units: "%"
  bioavailability: 12

bioavailability reading for CCc1nc2c(C)cc(N3CCN(CC(=O)N4CC(O)C4)CC3)cn2c1N(C)c1nc(-c2ccc(F)cc2)c(C#N)s1 : 29
